Parameter: optomotor response to blue moving lines. Scope: all listed entries.
system: Danio rerio larvae (5 dpf); experiment: optomotor response to blue moving lines, difference vs DMSO (percentage points (treated minus DMSO)); higher = more of the behaviour than the DMSO vehicle control; details: 10 µM; exposure time: 3 h pre-incubation + 3 h imaging
Counter-ions that a name gives are not always drawn.
Respond with the number and no other words.

# compound, assayed-target, optomotor response to blue moving lines
rows = [
    ("OC(c1cc(C(F)(F)F)nc2c(C(F)(F)F)cccc12)C1CCCCN1 (stereo not drawn) [Mefloquine hydrochloride]", "Danio rerio larvae (5 dpf)", 10.8),
]

// sample "Cc1cc(C2CCCCC2)n(O)c(=O)c1" , its optomotor response to blue moving lines was -8.77

// sample "C[C@H]1C[C@@H]2[C@H]([C@@H](O)C[C@@]3(C)[C@H]2CC[C@]3(O)C(=O)CO)[C@@]2(C)C=CC(=O)C=C12" , its optomotor response to blue moving lines was 10.6

// sample Clc1ccc2nsnc2c1NC1=NCCN1 [Tizanidine hydrochloride] , its optomotor response to blue moving lines was 3.61

// sample O=C(NCC1CCCCN1)c1cc(OCC(F)(F)F)ccc1OCC(F)(F)F (stereo not drawn) [Flecainide acetate] , its optomotor response to blue moving lines was 9.21

// sample "CCC(C)(C)C(=O)O[C@H]1C[C@@H](C)C=C2C=C[C@H](C)[C@H](CC[C@@H]3C[C@@H](O)CC(=O)O3)[C@H]21" , its optomotor response to blue moving lines was -4.79

// sample Cc1cccc(C)c1OCC(C)N (stereo not drawn) [Mexiletine hydrochloride] , its optomotor response to blue moving lines was 7.61

// sample Cc1ccc(N(CC2=NCCN2)c2cccc(O)c2)cc1 [Phentolamine Mesylate] , its optomotor response to blue moving lines was 16.3

* * *

Parameter: optomotor response to red moving lines. Scope: all listed entries.
system: Danio rerio larvae (5 dpf); assay: optomotor response to red moving lines, difference vs DMSO (percentage points (treated minus DMSO)); higher = more of the behaviour than the DMSO vehicle control; details: 10 µM; exposure time: 3 h pre-incubation + 3 h imaging
Respond with the number and no other words.

Before answering, review these 3 worked examples.
# molecule, optomotor response to red moving lines
data = [
    ("CC(C)c1nc(N(C)S(C)(=O)=O)nc(-c2ccc(F)cc2)c1/C=C/[C@@H](O)C[C@@H](O)CC(=O)O", 7.07),
    ("CC(C)C(=O)Nc1ccc([N+](=O)[O-])c(C(F)(F)F)c1 [Flutamide]", -10.8),
    ("COc1ccc(-c2ccc3cc(C(=O)O)ccc3c2)cc1C12CC3CC(CC(C3)C1)C2", -12.7),
]

Query molecule follows.
Simply: COc1ccc(Cl)cc1C(=O)NCCc1ccc(S(=O)(=O)NC(=O)NC2CCCCC2)cc1 [Glibenclamide] , Danio rerio larvae (5 dpf), optomotor response to red moving lines = 10.2

* * *

tested on: Danio rerio larvae (5 dpf); assay: optomotor response to fast red moving lines, difference vs DMSO (percentage points (treated minus DMSO)); higher = more of the behaviour than the DMSO vehicle control; settings: 10 µM; exposure time: 3 h pre-incubation + 3 h imaging
Decide using optomotor response: a value greater than or equal to -4 is label 1, a smaller one is label 0.

# compound, assayed-target, group-label
measured = [
    ("CCCCNc1cc(C(=O)O)cc(S(N)(=O)=O)c1Oc1ccccc1 [Bumetanide]", "Danio rerio larvae (5 dpf)", "label 0"),
    ("OCCN1C[C@H](O)[C@@H](O)[C@H](O)[C@H]1CO [Miglitol]", "Danio rerio larvae (5 dpf)", "label 1"),
    ("CCCCC1=NC2(CCCC2)C(=O)N1Cc1ccc(-c2ccccc2-c2nnn[nH]2)cc1 [Irbesartan]", "Danio rerio larvae (5 dpf)", "label 0"),
    ("OCCN(CCO)c1nc(N2CCCCC2)c2nc(N(CCO)CCO)nc(N3CCCCC3)c2n1 [Dipyridamole]", "Danio rerio larvae (5 dpf)", "label 1"),
]

Turning now to a further compound:
Determine whether this compound has optomotor response no lower than -4: "CN1CC[C@@H](NC(=O)Nc2ccc(C#N)cc2)C[C@@H]1c1nc2ccccc2[nH]1"
label 1

Where do the numbers come from? From the supplement of paper PMC9023506.
